test: chemical genetic growth profiling, strain panel (AID 1159580);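 note: tested at 20 µM; growth read once vehicle control cultures reached saturation at 30 °C; 1 = growth at the plate median or of vehicle wells; lower values mean less growth of the strain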; details: S. cerevisiae deletion strains, growth OD, locus YML094W, strain GIM5
The whole screen tested about 5,500 compounds, of which about 2,000 (36%) were called active. Another 18% or so got no clear call; they are omitted. Cut-off read from the data, not from the text of the source: active = normalized growth mostly below about 0.91 (no sharp cut-off); inconclusive = no clear call, values can overlap the other calls; inactive = mostly above about 0.92. Some of the results follow.
Possible outcomes: active, inactive

* NC(=NS(=O)(=O)c1cc(Cl)c(Oc2ccc([N+](=O)[O-])cc2Cl)c(Cl)c1)c1cccnc1 | inactive
* O=C(O)c1oc(C(=O)O)c(OCc2ccccc2)c1OCc1ccccc1 | inactive
* COc1cc(NC(=S)N2CCN(c3ccccc3OC)CC2)c(OC)cc1Cl | inactive
* CC(=O)C1=C(C)Nc2ccccc2S1 | inactive
* Cc1nnsc1C(=O)O/N=C1/CCSc2ccc(F)cc21 | inactive
* CCOC(=O)c1cnc2n(c1=O)CCS2 | active
* CCOC(=O)/C(C#N)=C/Nc1ccc2c(c1)OCO2 | inactive
* COc1ccccc1NC(=S)NCCC(=O)O | inactive
* O=[N+]([O-])c1cnc2ccccn12 | inactive
* Cn1c(SCc2ccccc2)nnc1-c1ccc2ncccc2c1 | inactive
* O=C(NCCCCO)OCC1c2ccccc2-c2ccccc21 | inactive
* Cc1ccc(Sc2nc(C)c([N+](=O)[O-])c(C)c2C#N)cc1 | inactive
* O=C1CC(=O)CC(c2ccc(Cl)c(Cl)c2)C1 | inactive
* Cn1c(SCC(=O)N2CCOCC2)nnc1-c1ccc2ncccc2c1 | inactive

====

assay: chemical genetic growth profiling, strain panel (AID 1159580);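 note: tested at 20 µM; growth read once vehicle control cultures reached saturation at 30 °C; 1 = growth at the plate median or of vehicle wells; lower values mean less growth of the strain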; conditions: S. cerevisiae deletion strains, growth OD, locus YBL061C, strain skt5, hits give low values
Out of some 5,500 compounds screened, about 2,000 (36%) were called active. Another 18% or so got no clear call; they are omitted. This is one part of the list.
readout_type: normalized growth

- CC(=O)O[C@@H]1c2c(ccc3ccc(=O)oc23)OC(C)(C)[C@@H]1OC(=O)CC(C)C: 0.992
- CC(C)Nc1nc(Cl)nc(NC(C)C)n1: 0.996
- C[C@]12CCC3C(CC[C@]4(O)C[C@@H](O)CC[C@]34C=O)[C@@]1(O)CCC2C1=CC(=O)OC1 (stereo partly specified): 0.979
- O=C(O)CCc1nc(-c2ccccc2)c(-c2ccccc2)o1: 0.965
- Cc1c(C(N)=O)cc([N+](=O)[O-])cc1[N+](=O)[O-]: 1.02
- CN(C)C(=O)C(CCN1CCC(O)(c2ccc(Cl)cc2)CC1)(c1ccccc1)c1ccccc1: 0.99

====

Measured normalized growth values are reported for all entries that follow.
assay: chemical genetic growth profiling, strain panel (AID 1159580);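 note: tested at 20 µM; growth read once vehicle control cultures reached saturation at 30 °C; 1 = growth at the plate median or of vehicle wells; lower values mean less growth of the strain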; settings: S. cerevisiae deletion strains, growth OD, locus YKR091W, strain srl3, hits give low values
The campaign covered roughly 5,500 compounds. About 2,000 (36%) were called active. Roughly 18% stayed inconclusive and do not appear here. The list shows a part of the results.
readout_type: normalized growth

• NC(=O)c1ccc([N+](=O)[O-])cc1Cl = 0.977
• Cc1c(C(N)=O)cc([N+](=O)[O-])cc1[N+](=O)[O-] = 1.02
• NCCCC(O)(P(=O)(O)O)P(=O)(O)O = 0.981
• O=C(O)CCc1nc(-c2ccccc2)c(-c2ccccc2)o1 = 0.957
• NC(=O)c1cc([N+](=O)[O-])cc([N+](=O)[O-])c1 = 1.02
